system_under_test: KSR2 (purified hKSR2-rMEK1 complex) (Homo sapiens (Human))
Sequence (Q6VAB6 634-950): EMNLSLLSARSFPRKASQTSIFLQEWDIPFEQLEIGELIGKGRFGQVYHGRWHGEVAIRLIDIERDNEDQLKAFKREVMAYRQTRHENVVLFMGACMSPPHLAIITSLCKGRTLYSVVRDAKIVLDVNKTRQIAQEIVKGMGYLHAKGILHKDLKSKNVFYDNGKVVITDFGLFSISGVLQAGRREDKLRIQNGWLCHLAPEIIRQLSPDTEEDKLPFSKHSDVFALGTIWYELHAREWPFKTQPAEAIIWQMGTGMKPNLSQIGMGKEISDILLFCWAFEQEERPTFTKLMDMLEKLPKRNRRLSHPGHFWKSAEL
Sequence (P29678 whole entry partner): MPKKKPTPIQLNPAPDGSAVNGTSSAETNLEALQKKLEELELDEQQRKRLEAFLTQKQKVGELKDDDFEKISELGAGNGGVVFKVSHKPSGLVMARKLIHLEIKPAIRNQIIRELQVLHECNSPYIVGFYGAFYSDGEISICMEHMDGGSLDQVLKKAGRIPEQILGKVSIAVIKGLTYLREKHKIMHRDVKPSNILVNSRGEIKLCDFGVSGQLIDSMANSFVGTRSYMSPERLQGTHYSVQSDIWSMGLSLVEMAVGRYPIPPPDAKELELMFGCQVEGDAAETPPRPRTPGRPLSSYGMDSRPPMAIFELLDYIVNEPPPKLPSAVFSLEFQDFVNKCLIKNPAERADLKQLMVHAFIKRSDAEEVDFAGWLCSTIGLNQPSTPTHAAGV
assay_summary: ATP-biotin probe labeling and inhibitor competition (KSR2 band)
Format: binding
experimental_setup: ATPbiotin probe labeling competition; 0.1 μM KSR2:MEK1; 27 nM to 20 μM compound; triplicate; read-out: KSR2 IC50
pIC50: −log10 of the molar value. Structures can show the parent of a compound that is named as a salt.
recorded_endpoint: pIC50

Quickly give me recorded pIC50 for COc1cc2ncnc(Nc3ccc(Oc4ccccc4)c(C)c3C)c2cc1OC.Cl [Compound 50, hydrochloride]
< 5.00

Quickly give me recorded pIC50 for COc1cc2ncnc(Nc3ccc(O)cc3)c2cc1OC [Compound 7, hydrochloride]
< 5.00

Quickly give me recorded pIC50 for COc1ccc(Nc2ncnc3cc(OC)c(OC)cc23)cc1 [Compound 3, hydrochloride]
< 5.00

Quickly give me recorded pIC50 for COc1cc2/c(=N/c3ccc(Oc4ccccc4)cc3)ncn(C)c2cc1OC
< 5.00

Quickly give me recorded pIC50 for COc1cc2ncnc(Nc3ccc(Oc4ccccc4)cc3C)c2cc1OC [Compound 21, 2,2,2-trifluoroacetate]
6.92
